Recorded EC50 by entry
- study_system: TRPML2 (Homo sapiens)
- Construct: expressed in transfected cells
- Sequence (Q8IZK6 1-566): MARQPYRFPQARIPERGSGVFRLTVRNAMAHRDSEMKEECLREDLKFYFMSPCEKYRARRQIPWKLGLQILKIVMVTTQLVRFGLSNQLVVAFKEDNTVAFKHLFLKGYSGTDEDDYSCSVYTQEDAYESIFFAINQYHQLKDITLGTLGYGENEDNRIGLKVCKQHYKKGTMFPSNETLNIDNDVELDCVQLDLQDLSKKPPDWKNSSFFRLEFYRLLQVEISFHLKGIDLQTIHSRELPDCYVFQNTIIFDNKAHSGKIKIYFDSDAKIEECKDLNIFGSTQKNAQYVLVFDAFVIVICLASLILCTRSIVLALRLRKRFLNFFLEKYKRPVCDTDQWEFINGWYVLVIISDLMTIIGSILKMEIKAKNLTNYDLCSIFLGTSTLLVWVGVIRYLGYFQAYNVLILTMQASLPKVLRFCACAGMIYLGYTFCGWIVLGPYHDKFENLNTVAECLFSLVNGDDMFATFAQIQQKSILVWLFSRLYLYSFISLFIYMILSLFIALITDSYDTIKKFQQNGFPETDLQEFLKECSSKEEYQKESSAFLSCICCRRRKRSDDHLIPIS
- assay_text: Fluorescent TRPML2 assay (performed as for TRPML1, substituting the TRPML2 subtype)
- Assay type: cell-based
- reported_conditions: fluorescent calcium assay

Reference set (5 entries):
C[C@H]1CN(C(=O)OC(C)(C)C)CCN1c1ncnc2c1c(-n1ccnc1)cn2-c1cccc(Cl)c1 = > 2000 nM
C[C@@H]1CN(C(=O)OC(C)(C)C(F)(F)F)CCN1c1ncnc2c1c(C1CC1)cn2-c1ccc(Cl)cc1 = 100 to 500 nM
Cc1cncc(-n2cc(C3CC3)c3c(N4CCN(C(=O)OC(C)(C)C)[C@@H](C)C4)ncnc32)c1 (single isomer, unassigned) = 500 to 2000 nM
CC(C)(C)OC(=O)N1CCN(c2ncnc3c2c(C2CC2)cn3-c2cc(F)cc(F)c2)CC1 = 100 to 500 nM
C[C@H]1CN(C(=O)OC(C)(C)C)CCN1c1ncnc2c1c(C1CC1)cn2-c1cc(Cl)ccn1 = < 100 nM

Tell me its EC50 given `Cc1cncc(-n2cc(C3CC3)c3c(N4CCN(C(=O)OC(C)(C)C)C[C@@H]4C)ncnc32)c1` as the entry.
500 to 2000 nM

Tell me its EC50 given `C[C@@H]1CN(c2ncnc3c2c(-c2cccnc2)cn3-c2cccc(Cl)c2)[C@@H](C)CN1C(=O)OC(C)(C)C` as the entry.
100 to 500 nM

Tell me its EC50 given `CC(C)(C)OC(=O)N1CCN(c2ncnc3c2c(-c2ccccn2)cn3-c2cccc(Cl)c2)CC1` as the entry.
100 to 500 nM

Tell me its EC50 given `C[C@H]1CN(C(=O)OC(C)(C)C)CCN1c1ncnc2c1c(C1CC1)cn2-c1cc(C#N)ncn1` as the entry.
500 to 2000 nM

Tell me its EC50 given `C[C@H]1CN(C(=O)OC(C)(C)C)CCN1c1ncnc2c1c(N1CCC[C@@H]1CO)cn2-c1cc(F)cc(F)c1` as the entry.
500 to 2000 nM

Tell me its EC50 given `C[C@@H]1CN(c2ncnc3c2c(-c2cnccn2)cn3-c2cccc(Cl)c2)[C@@H](C)CN1C(=O)OC(C)(C)C` as the entry.
500 to 2000 nM

Tell me its EC50 given `C[C@@H]1CN(C(=O)OC(C)(C)C)CCN1c1ncnc2c1c(-c1ccccc1F)cn2-c1cc(C#N)ccn1` as the entry.
100 to 500 nM

Tell me its EC50 given CC(C)(C)OC(=O)N1CCN(c2ncnc3c2c(-c2ccccc2F)cn3-c2cc(C#N)ccn2)C2CC21 (stereo not shown) as the entry.
100 to 500 nM

Cited source: patent US20250136606A1
